Target: human KHK-C (Homo sapiens (Human))
Sequence (P50053 whole entry): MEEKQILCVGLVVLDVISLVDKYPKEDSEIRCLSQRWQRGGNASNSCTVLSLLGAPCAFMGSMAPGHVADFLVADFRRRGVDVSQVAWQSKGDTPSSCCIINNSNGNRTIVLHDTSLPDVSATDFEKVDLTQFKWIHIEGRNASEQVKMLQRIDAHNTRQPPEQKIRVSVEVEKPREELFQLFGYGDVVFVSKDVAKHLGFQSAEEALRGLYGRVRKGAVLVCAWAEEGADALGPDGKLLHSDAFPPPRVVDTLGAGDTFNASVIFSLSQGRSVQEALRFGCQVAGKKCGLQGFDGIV
Test: KHK Biochemical Assay (IC50), ADP-Glo, KHK-C
Conditions: ADP-Glo; average of at least two separate assays
MEASUREMENT NAME: IC50 (nM)

{"columns": ["MOLECULE", "MEASUREMENT NAME", "UNIT SYMBOL", "OBS VALUE"],
 "data": [
  ["C[C@H]1[C@H](F)CN1c1nc2c(c(-c3ccc4c(c3)CCNC4=O)n1)CCC2", "IC50", "nM", 17.5],
  ["Cc1ccc(-c2nc(N3CC[C@@H]3C)nc3c2CCC3)cc1S(N)(=O)=O", "IC50", "nM", 30.5],
  ["CCOc1cc(-c2nc(N3C[C@@H](O)[C@@H]3C)nc3c2CCC3(F)F)ccc1C(N)=O", "IC50", "nM", 11.2],
  ["CC1CN(c2nc3c(c(-c4ccc(C(N)=O)cc4)n2)CCC3)C1C (stereo not shown)", "IC50", "nM", 205]
]}
